molecular target: biotinylated human Gal-3 (hGal-3) (Homo sapiens); assay: Competitive binding assay: biotinylated hGal-3 binding to microplate-adsorbed asialofetuin (ASF), spectrophotometric; settings: Table 13; hGal-3; read-out: IC50 (Gal-3 inhibition)
Sequence (P17931 whole entry): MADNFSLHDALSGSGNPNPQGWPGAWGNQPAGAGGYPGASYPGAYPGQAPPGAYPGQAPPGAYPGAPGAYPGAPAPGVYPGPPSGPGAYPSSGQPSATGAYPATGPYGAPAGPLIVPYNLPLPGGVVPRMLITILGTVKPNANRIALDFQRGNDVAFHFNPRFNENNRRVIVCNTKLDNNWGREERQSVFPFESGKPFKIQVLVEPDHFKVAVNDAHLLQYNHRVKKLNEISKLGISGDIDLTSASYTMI
A collection of compounds and their measured pIC50
Would you please state pIC50, meaning minus log10 of the concentration in mol/L, as a bare number?

These recorded examples may help you get a feel for the data.
// recorded pIC50 for CO[C@@H]1[C@@H](n2cc(-c3cc(F)c(F)c(F)c3)nn2)[C@@H](O)[C@@H](CO)O[C@H]1S[C@H](C(=O)N1CCC(F)(F)CC1)C1(O)CCC2(CCOCC2)CC1 [Example 2.72.226S.I.] : 7.40

// recorded pIC50 for CO[C@@H]1[C@@H](n2cc(-c3cc(F)c(F)c(F)c3)nn2)[C@@H](O)[C@@H](CO)O[C@H]1SC(C(=O)N1CCC(F)(F)CC1)C1(O)CCC2(CCOCC2)CC1 (stereo partly shown) [Example 2.72.226.I.] : 7.22

// recorded pIC50 for CO[C@@H]1[C@@H](n2cc(-c3cc(F)c(F)c(F)c3)nn2)[C@@H](O)[C@@H](CO)O[C@H]1S[C@@H](C(=O)N1CCC(F)(F)CC1)C1(O)CCC2(CCCC2)CC1 [Example 2.71.226R.I.] : 6.17

// recorded pIC50 for CO[C@@H]1[C@@H](n2cc(-c3cc(F)c(F)c(F)c3)nn2)[C@@H](O)[C@@H](CO)O[C@H]1S[C@H](C(=O)N1CCC(F)(F)CC1)C1(O)CCC2(CCCC2)CC1 [Example 2.71.226S.I.] : 7.00

// recorded pIC50 for CO[C@@H]1[C@@H](n2cc(-c3cc(F)c(F)c(F)c3)nn2)[C@@H](O)[C@@H](CO)O[C@H]1SC(C(=O)N1CCC(F)(F)CC1)C1(O)CCC2(CC1)COC2 (stereo partly shown) [Example 2.70.226.I.] : 6.96

***
// recorded pIC50 for CO[C@@H]1[C@@H](n2cc(-c3cc(F)c(F)c(F)c3)nn2)[C@@H](O)[C@@H](CO)O[C@H]1SC(C(=O)N1CCC(F)(F)CC1)C1(O)CCC2(CC2)CC1 (stereo partly shown) [Example 2.67.226.1.] : 6.92

// recorded pIC50 for CO[C@@H]1[C@@H](n2cc(-c3cc(F)c(F)c(F)c3)nn2)[C@@H](O)[C@@H](CO)O[C@H]1S[C@H](C(=O)N1CCC(F)(F)CC1)C1(O)CCC2(CCC2)CC1 [Example 2.69.226S.I.] : 6.92

// recorded pIC50 for CO[C@@H]1[C@@H](n2cc(-c3cc(F)c(F)c(F)c3)nn2)[C@@H](O)[C@@H](CO)O[C@H]1SC(C(=O)N1CCC(F)(F)CC1)C1(O)CCC(C)(C)CC1 (stereo partly shown) [Example 2.68.226.I.] : 7.00

// recorded pIC50 for CO[C@@H]1[C@@H](n2cc(-c3cc(F)c(F)c(F)c3)nn2)[C@@H](O)[C@@H](CO)O[C@H]1S[C@@H](C(=O)N1CCC(F)(F)CC1)C1(O)CCC2(CCC2)CC1 [Example 2.69.226R.I.] : 6.24

// recorded pIC50 for CO[C@@H]1[C@@H](n2cc(-c3cc(F)c(F)c(F)c3)nn2)[C@@H](O)[C@@H](CO)O[C@H]1S[C@@H](C(=O)N1CCC(F)(F)CC1)C1(O)CCC2(CCOCC2)CC1 [Example 2.72.226R.I.] : 4.83
